The measured values listed here are drawn from a melting point compilation (Tetko et al.; mined from patent text by program, amines drawn as free bases though some values may be those of a salt).

Item-by-item account of melting point

In the examples that follow, each entry is paired with its recorded melting point.
- Compound String: "CS(=O)(=O)OCCN(CCI)c1c(C(=O)NCCOP(=O)(O)O)cc([N+](=O)[O-])cc1[N+](=O)[O-]"
  melting point: "147 to 150 °C"
- Compound String: "CCOc1ccc(-c2nc(C=Cc3ccccc3)cs2)cc1OCC"
  melting point: "94 to 95 °C"
- Compound String: "COc1ccc2c(=O)n3cccc3oc2c1"
  melting point: "128 to 129 °C"
- Compound String: "Cc1nc(N2CCN(Cc3ccc(OC(F)(F)F)cc3)C2=O)sc1C(=O)Nc1ccccc1"
  melting point: "187 to 188 °C"
- Compound String: "Cc1cc2c(cc1C)N(C)c1cscc1C(=O)N2"
  melting point: "260 to 262 °C"

Task: Please supply the value of reported melting point for the item Nc1ccccc1C(=O)OCN1C(=O)c2ccccc2C1=O
Output: 160 to 162 °C
